Biological target: Der pI (Dermatophagoides pteronyssinus, UniProt P08176)
Construct: tissue SmithKline-Beecham, U.K (crude mite extract); host or cells: crude house dust mite extract
Sequence (P08176 99-320): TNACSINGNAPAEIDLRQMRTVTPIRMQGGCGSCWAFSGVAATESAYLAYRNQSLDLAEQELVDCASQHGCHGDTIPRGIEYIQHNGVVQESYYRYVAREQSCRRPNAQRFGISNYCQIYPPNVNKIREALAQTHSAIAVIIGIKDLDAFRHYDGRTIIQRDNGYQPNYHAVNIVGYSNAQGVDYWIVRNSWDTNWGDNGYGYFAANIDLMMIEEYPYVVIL
Assay: Der pI substrate assay with FRET peptides (fluorescence, Km, kcat/Km)
Type: biochemical, house dust mite
Design: key: NS indicates that the peptide was not hydrolysed by Der pI.; NM indicated that the peptide was a substrate for Der pI, but the Km was not measured.; NM^a indicates that the peptide was a substrate for Der pI, and its cleavage was followed by HPLC-MS showing hydrolysis to occur between-Nle-Ser-
Details: purified Der pI; peptides SEQ ID Nos. 1-76
Non-standard residues stand in square brackets, D forms with d. Residues, ends and D or L forms follow the SMILES beside them. *: point of attachment. Tyr(3-NO2) = N[C@@H](Cc1ccc(O)c([N+](=O)[O-])c1)C(=O)O; 2Nal = N[C@@H](Cc1ccc2ccccc2c1)C(=O)O; Hyp = O=C(O)[C@@H]1C[C@@H](O)CN1; Tic = O=C(O)[C@@H]1Cc2ccccc2CN1; hLeu = CC(C)CC[C@H](N)C(=O)O; dNle = CCCC[C@@H](N)C(=O)O; Ac6c = NC1(C(=O)O)CCCCC1; Nle = CCCC[C@H](N)C(=O)O; 2Abz = Nc1ccccc1C(=O)O; Bz = O=C(c1ccccc1)*
QUANTITY: substrate or not substrate for Der pI (symbols in Measured Km)

| COMPOUND | MEAS_VALUE |
| --- | --- |
| CC(C)CC[C@H](NC(=O)[C@@H](CCC(N)=O)NC(=O)[C@@H](NC(=O)c1ccccc1N)C(C)C)C(=O)N[C@@H](CO)C(=O)N[C@@H](Cc1ccc(O)c([N+](=O)[O-])c1)C(=O)N[C@@H](CC(=O)O)C(N)=O [Abz-Va1-DGln-hLeu-Ser-Tyr(NO2)-Asp-NH2] (H-[2Abz]V[dQ][hLeu]S[Tyr(3-NO2)]D-NH2) | NS |
| CCCC[C@H](NC(=O)[C@H](C)NC(=O)c1ccccc1N)C(=O)N[C@@H](CO)C(=O)N[C@@H](Cc1ccc(O)c([N+](=O)[O-])c1)C(=O)N[C@@H](CC(=O)O)C(N)=O [Abz-Ala-Nle-Ser-Tyr(NO2)-Asp-NH2] (H-[2Abz]A[Nle]S[Tyr(3-NO2)]D-NH2) | NM |
| CC(C)[C@H](NC(=O)c1ccccc1N)C(=O)N[C@@H](C)C(=O)NC1(C(=O)N[C@@H](CO)C(=O)N[C@@H](Cc2ccc(O)c([N+](=O)[O-])c2)C(=O)N[C@@H](CC(=O)O)C(N)=O)CCCCC1 [Abz-Val-Ala-ACH-Ser-Tyr(NO2)-Asp-NH2] (H-[2Abz]VA[Ac6c]S[Tyr(3-NO2)]D-NH2) | NS |
| CC(C)CC[C@H](NC(=O)[C@@H]1Cc2ccccc2CN1C(=O)[C@@H](NC(=O)c1ccccc1N)C(C)C)C(=O)N[C@@H](CO)C(=O)N[C@@H](Cc1ccc(O)c([N+](=O)[O-])c1)C(=O)N[C@@H](CC(=O)O)C(N)=O [Abz-Val-Tic-hLeu-Ser-Tyr(NO2)-Asp-NH2] (H-[2Abz]V[Tic][hLeu]S[Tyr(3-NO2)]D-NH2) | NS |
| CCCC[C@H](NC(=O)[C@H](C)NC(=O)[C@@H](NC(=O)c1ccccc1N)C(C)C)C(=O)N[C@@H](CO)C(=O)N[C@@H](CCCCN)C(=O)N[C@@H](CC(=O)O)C(N)=O [Abz-Val-Ala-Nle-Ser-Lys-Asp-NH2] (H-[2Abz]VA[Nle]SKD-NH2) | NM |

Fill in the blank: the reported substrate or not substrate for Der pI (symbols in Measured Km) of CC(C)CC[C@H](NC(=O)[C@H](Cc1ccc2ccccc2c1)NC(=O)[C@@H](NC(=O)c1ccccc1N)C(C)C)C(=O)N[C@@H](CO)C(=O)N[C@@H](Cc1ccc(O)c([N+](=O)[O-])c1)C(=O)N[C@@H](CC(=O)O)C(N)=O [Abz-Val-2Nal-hLeu-Ser-Tyr(NO2)-Asp-NH2] (H-[2Abz]V[2Nal][hLeu]S[Tyr(3-NO2)]D-NH2) is ____.
NS

Cool, now CCCC[C@H](NC(=O)[C@H](C)NC(=O)[C@@H](NC(=O)c1ccccc1)C(C)C)C(=O)N[C@@H](CO)C(=O)N[C@@H](Cc1ccc(O)c([N+](=O)[O-])c1)C(N)=O [Bz-Val-Ala-Nle-Ser-Tyr(NO2)-NH2] (Bz-VA[Nle]S[Tyr(3-NO2)]-NH2)
NM^a

Cool, now CCCC[C@H](NC(=O)[C@H](C)NC(=O)[C@@H](NC(=O)c1ccccc1N)C(C)C)C(=O)N[C@@H](CO)C(N)=O [Abz-Val-Ala-Nle-Ser-NH2] (H-[2Abz]VA[Nle]S-NH2)
NM

Cool, now CC(C)CC[C@H](NC(=O)C1(NC(=O)[C@@H](NC(=O)c2ccccc2N)C(C)C)CCCCC1)C(=O)N[C@@H](CO)C(=O)N[C@@H](Cc1ccc(O)c([N+](=O)[O-])c1)C(=O)N[C@@H](CC(=O)O)C(N)=O [Abz-Val-ACH-hLeu-Ser-Tyr(NO2)-Asp-NH2] (H-[2Abz]V[Ac6c][hLeu]S[Tyr(3-NO2)]D-NH2)
NS

Cool, now CCCC[C@H](NC(=O)[C@H](C)N)C(=O)N[C@@H](CO)C(=O)N[C@@H](Cc1ccc(O)c([N+](=O)[O-])c1)C(=O)N[C@@H](CC(=O)O)C(N)=O [H-Ala-Nle-Ser-Tyr(NO2)-Asp-NH2] (H-A[Nle]S[Tyr(3-NO2)]D-NH2)
NS

Cool, now CCCC[C@@H](NC(=O)[C@H](C)NC(=O)[C@@H](NC(=O)c1ccccc1N)C(C)C)C(=O)N[C@@H](CO)C(=O)N[C@@H](Cc1ccc(O)c([N+](=O)[O-])c1)C(=O)N[C@@H](CC(=O)O)C(N)=O [Abz-Val-Ala-DNle-Ser-Tyr(NO2)-Asp-NH2] (H-[2Abz]VA[dNle]S[Tyr(3-NO2)]D-NH2)
NS

Cool, now CC(C)CC[C@H](NC(=O)[C@H](C)NC(=O)[C@@H]1Cc2ccccc2CN1C(=O)c1ccccc1N)C(=O)N[C@@H](CO)C(=O)N[C@@H](Cc1ccc(O)c([N+](=O)[O-])c1)C(=O)N[C@@H](CC(=O)O)C(N)=O [Abz-Tic-Ala-hLeu-Ser-Tyr(NO2)-Asp-NH2] (H-[2Abz][Tic]A[hLeu]S[Tyr(3-NO2)]D-NH2)
NS

Cool, now CCCC[C@H](NC(=O)[C@H](C)NC(=O)[C@@H](NC(=O)[C@@H]1C[C@@H](O)CN1C(=O)c1ccccc1N)C(C)C)C(=O)N[C@@H](CO)C(=O)N[C@@H](Cc1ccc(O)c([N+](=O)[O-])c1)C(=O)N[C@@H](CC(=O)O)C(N)=O [Abz-Hyp-Val-Ala-Nle-Ser-Tyr(NO2)-Asp-NH2] (H-[2Abz][Hyp]VA[Nle]S[Tyr(3-NO2)]D-NH2)
NS
